B1: CAMK2B (parent)
chain: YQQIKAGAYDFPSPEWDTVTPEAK

- Variants of: B1
- protocol-notes: protein stability index of a GFP-peptide fusion (GPS, HEK-293T) (PSI 1-6); higher = more stable;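 also: lentivirally expressed fusions sorted by FACS into six bins by GFP to DsRed ratio, PSI derived from sequencing read proportions per bin multiplied by bin number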
- experimental-setup: c terminus: a fixed tail appended
metric-name: protein stability index
// response body must contain only the number

Sample answers from the record:
V19Q | 4.01
A23L | 2.81
G7K | 3.27

Look at this variant and give its reported protein stability index. Q2M
3.95

And what about the variant D10R ?
2.05

And what about the variant E15A ?
2.93

And what about the variant P12A ?
2.94

And what about the variant Y9S ?
4.3
